Tested on: V-C8 (BRCA2-deficient hamster cells)
Assay: normalised cell viability (fraction of plate median); higher = more viable cells (less toxic)
Conditions: treatment time: 6 days; 5 µM
Structures can show the parent of a compound that is named as a salt. In all, about 1,300 compounds were measured (“normalised cell viability”: median about 1, lowest 2% from about 0.14 on). The list comes from a sample in which the lowest values are over-represented; it also holds close analogues and randomly drawn compounds.
Note to self: normalised cell viability under 1 means YES, ties and anything higher get NO.

Query :: Is 1 strictly greater than the compound's reported normalised cell viability? compound: c1ccc(CNc2ncnc3nc[nH]c23)cc1
Result :: YES

Query :: Field: below-cutoff. Rule: recorded normalised cell viability strictly less than 1. Subject: CC(C)NCC(O)c1ccc(O)c(O)c1 (single isomer, unassigned; (-)) [(-)-Isoproterenol hydrochloride]
Result :: YES

Query :: Bench note: check whether CC(C)(C)NCC(O)COc1cccc2c1CC(O)C(O)C2 (configuration not stated) shows normalised cell viability below 1
Result :: NO

Query :: Consider the compound C=C[C@H]1CN2CC[C@H]1C[C@@H]2[C@@H](O)c1ccnc2ccc(OC)cc12 [Quinidine hydrochloride monohydrate] . Is its normalised cell viability strictly less than 1?
Result :: YES

Query :: Strictly below 1: is that where normalised cell viability of CCN(CCO)CCCC(C)Nc1ccnc2cc(Cl)ccc12 (configuration not stated) [Hydroxychloroquine sulfate] sits?
Result :: YES

Query :: Lab note: normalised cell viability threshold 1. Does this compound come in strictly under it? COc1ccc2c(c1)C(=O)N(CCc1ccc(S(=O)(=O)NC(=O)NC3CCCCC3)cc1)C(=O)C2(C)C
Result :: NO

Query :: Is normalised cell viability of CC(C)(O)c1ccccc1CC[C@@H](SCC1(CC(=O)O)CC1)c1cccc(/C=C/c2ccc3ccc(Cl)cc3n2)c1 strictly below 1?
Result :: NO

Query :: Lab log: compare recorded normalised cell viability with 1; is it strictly lower for Cc1nc(=O)c2cc(CN(C)c3ccc(C(=O)N[C@@H](CCC(=O)O)C(=O)O)s3)ccc2[nH]1 ?
Result :: YES

Query :: Hello, is normalised cell viability of the following compound strictly smaller than 1? COc1cccc(N(C)C(=S)Oc2ccc3c(c2)CCCC3)n1 [Liranaftate]
Result :: YES

Query :: I wonder whether CC1=C(C(=O)O)N2C(=O)[C@@H](NC(=O)[C@H](N)c3ccccc3)[C@H]2SC1 [Cephalexin monohydrate] has normalised cell viability below 1. Can you tell?
Result :: NO

Query :: Lab log: compare recorded normalised cell viability with 1; is it strictly lower for COc1ccccc1OCC(O)CN1CCN(CC(=O)Nc2c(C)cccc2C)CC1 (configuration not stated) ?
Result :: YES

Query :: API: query returns whether the compound falls strictly under 1 in normalised cell viability. Query: CCN(CC)CCCC(C)Nc1c2ccc(Cl)cc2nc2ccc(OC)cc12 (configuration not stated) [Quinacrine dihydrochloride dihydrate]
Result :: YES

Query :: Is the reported normalised cell viability for COC(=O)N/N=C/c1c[n+]([O-])c2ccccc2[n+]1[O-] strictly below 1?
Result :: YES

====

Test system: V-C8 (BRCA2-deficient hamster cells)
Assay: normalised cell viability (fraction of plate median); higher = more viable cells (less toxic)
Conditions: treatment time: 3 days; 5 µM
Counter-ions that a name gives are not always drawn. Over roughly 1,300 compounds, “normalised cell viability” has its median near 1; the lowest 2% begin near 0.14. What follows is part of a selection rich in the lowest values, with near analogues and random picks from the rest.
# thresholds on normalised cell viability define classes: label 0 = under 0.3, label 1 = from 0.3 up to 1, label 2 = 1 and over

Query :: Place this molecule in its band: CCN(CC)CCCC(C)Nc1ccnc2cc(Cl)ccc12 (stereo not given) [Chloroquine diphosphate]
Result :: label 1

Query :: Dear colleague, I would appreciate it if you could identify the bin for O=C1c2c(O)ccc(O)c2C(=O)c2c(NCCNCCO)ccc(NCCNCCO)c21 [Mitoxantrone dihydrochloride] and reply at your convenience.
Result :: label 0

Query :: // bin(item) where item = CCN(CCO)CCCC(C)Nc1ccnc2cc(Cl)ccc12 (stereo not given) [Hydroxychloroquine sulfate]
Result :: label 1

Query :: For this molecule, which bin applies? Clc1ccc(CCC(Cn2ccnc2)Sc2c(Cl)cccc2Cl)cc1 (stereo not given) [Butoconazole nitrate]
Result :: label 1

Query :: Just checking, what class would you give Nc1nc(=O)[nH]cc1F here?
Result :: label 2

Query :: Which normalised cell viability category applies to Nc1c2ccccc2nc2ccccc12 here?
Result :: label 0

Query :: Please let me know in which category the item CCN(CC)CCCC(C)Nc1c2ccc(Cl)cc2nc2ccc(OC)cc12 (stereo not given) [Quinacrine dihydrochloride dihydrate] belongs.
Result :: label 0

Query :: Categorize the following entry: Clc1ccccc1CN1CCc2sccc2C1 [Ticlopidine hydrochloride]
Result :: label 2

Query :: Hi, small favor: classify CC(C)NC[C@@H](O)COc1cccc2ccccc12 [(R)-Propranolol hydrochloride] by its normalised cell viability when you get a moment.
Result :: label 1

Query :: Please classify: COc1ccc2c(c1)C(=O)N(CCc1ccc(S(=O)(=O)NC(=O)NC3CCCCC3)cc1)C(=O)C2(C)C
Result :: label 2

Query :: # bin lookup: classify COc1c(O[C@@H]2O[C@H](CO)[C@@H](O)[C@H](O)[C@H]2O)cc2c(c1OC)-c1ccc(SC)c(=O)cc1[C@@H](NC(C)=O)CC2 [Thiocolchicoside] by its normalised cell viability
Result :: label 2

Query :: Quick check: band for CN(C)CCOC(c1ccccc1)c1ccccc1.Cn1c(=O)c2[nH]c(Cl)nc2n(C)c1=O [Dimenhydrinate]
Result :: label 2

Query :: Into which category would you place CN[C@H](CC(C)C)C(=O)N[C@H]1C(=O)N[C@@H](CC(N)=O)C(=O)N[C@H]2C(=O)N[C@H]3C(=O)N[C@H](C(=O)N[C@H](C(=O)O)c4cc(O)cc(O)c4-c4cc3ccc4O)[C@H](O)c3ccc(c(Cl)c3)Oc3cc2cc(c3O[C@@H]2O[C@H](CO)[C@@H](O)[C@H](O)[C@H]2O[C@H]2C[C@](C)(N)[C@H](O)[C@H](C)O2)Oc2ccc(cc2Cl)[C@H]1O [Vancomycin hydrochloride] ?
Result :: label 0

====

Test system: V-C8 (BRCA2-deficient hamster cells)
Assay: normalised cell viability (fraction of plate median); higher = more viable cells (less toxic)
Details: treatment time: 6 days; 5 µM
Where a name gives a salt, the structure may show the parent alone. Over roughly 1,300 compounds, “normalised cell viability” has its median near 1; the lowest 2% begin near 0.14. This is one part of a sample in which the lowest values are shown more often than they occur.
measure: normalised cell viability

Entry under test: OCC(O)CN1CCN(c2ccccc2)CC1 (racemic) [Dropropizine (R,S)] . Its normalised cell viability was 1.01

The compound listed as CC(C)NC(=N)NC(=N)Nc1ccc(Cl)cc1 [Proguanil hydrochloride] shows normalised cell viability equal to 0.189

The compound identified as Cc1cc2cc3c(C)cc(=O)oc3c(C)c2o1 [Trioxsalen] registered its normalised cell viability at 1.07

Noted for CCCC(=O)Nc1ncnc2c1ncn2[C@@H]1O[C@@H]2COP(=O)(O)O[C@H]2[C@H]1OC(=O)CCC [Bucladesine sodium salt] : its normalised cell viability reads 1.04

Entry O=C1C=CC(=O)c2c1ccc1c2ccc2ccccc21 [Chrysene-1,4-quinone] ; normalised cell viability = 1.06

For this compound ( C#C[C@]1(O)CC[C@H]2[C@@H]3CCc4cc(OC)ccc4[C@H]3CC[C@@]21C [Ethynylestradiol 3-methyl ether] ), measured normalised cell viability is 0.886

Briefly, normalised cell viability measured for Cc1ccccc1N1C(=O)c2cc(S(N)(=O)=O)c(Cl)cc2NC1C (configuration not stated) [Metolazone] : 1.06

Short answer for NCc1ccccc1CC(=O)N[C@@H]1C(=O)N2C(C(=O)O)=C(CSc3nnnn3CC(=O)O)CS[C@H]12 [Ceforanide] : normalised cell viability was 1.21

Entry CCOC(=O)OC(C)OC1=C(C(=O)Nc2ccccn2)N(C)S(=O)(=O)c2ccccc21 (configuration not stated) [Ampiroxicam] ; normalised cell viability = 1.02

normalised cell viability reported for this compound Clc1ccc(CSC(Cn2ccnc2)c2ccc(Cl)cc2Cl)cc1 (configuration not stated) [Sulconazole nitrate] : 0.829

According to the records, this compound CN1CCCC(CC2c3ccccc3Sc3ccccc32)C1 (configuration not stated) [Metixene hydrochloride] displays normalised cell viability of 0.69

Data point: Cc1nccn1CC1CCc2c(c3ccccc3n2C)C1=O (configuration not stated) [Ondansetron Hydrochloride] ; normalised cell viability = 1.1

Lab note: measured normalised cell viability of Nc1ccn([C@H]2CC[C@@H](CO)O2)c(=O)n1 [Zalcitabine] was 1.04

Form field normalised cell viability, entry Cc1cc(C2CCCCC2)n(O)c(=O)c1 [Ciclopirox ethanolamine] : 0.23

CC(=O)OC[C@H]1O[C@@H]([S-])[C@H](OC(C)=O)[C@@H](OC(C)=O)[C@@H]1OC(C)=O.CCP(CC)CC.[Au+] [Auranofin] has a reported normalised cell viability of 0.141

Lab note: CC(=O)NC[C@H]1CN(c2ccc(N3CCOCC3)c(F)c2)C(=O)O1 [Linezolid] gave normalised cell viability of 0.972

For this compound ( CN1CCN(c2c(F)cc3c(=O)c(C(=O)O)cn(CCF)c3c2F)CC1 [Fleroxacin] ), measured normalised cell viability is 0.977

Values were extracted from the supplement of paper PMC6609913.
